From: patent US20100015141A1

# Assayed target: UniProt:P42336
Endpoint label: IC50 (nM)
Numbers only, in nM.

Provide reported IC50 for each item, in the same order as listed.
1. CN(C)C1CCN(C(=O)c2ccc(NC(=O)Nc3ccc(Nc4nc(Nc5ccc(C(N)=O)cc5)c5cnn(C)c5n4)cc3)cc2)CC1
2. NC(=O)c1ccc(Nc2nc(-c3cccc(O)c3)nc3c2cnn3C2CCN(Cc3ccccc3)CC2)cc1
3. CC(=O)Nc1ccc(N(C)c2nc(-c3ccccc3)nc3c2cnn3C)cc1

Result ::
1. 0.2
2. 3500
3. 1500

Provide reported IC50 for each item, in the same order as listed.
1. CC(=O)Nc1ccc(Oc2nc(-c3ccccc3)nc3c2cnn3C)cc1
2. COc1ccc(Oc2nc(-c3ccc(OC)c(OC)c3)nc3c2cnn3C)cc1OC
3. Cn1ncc2c(Nc3ccc(C(N)=O)cc3)nc(Nc3ccc(NC(=O)Nc4ccc(C(=O)N5CCOCC5)cc4)cc3)nc21
4. Cn1ncc2c(Oc3ccc4[nH]ccc4c3)nc(-c3cccc(OCc4ccccc4Cl)c3)nc21
5. CC(=O)Nc1ccc(Oc2nc(-c3cccc(C(F)(F)F)c3)nc3c2cnn3C)cc1
6. NC(=O)c1ccc(Nc2nc(-c3cccc(C(F)(F)F)c3)nc3c2cnn3C2CCN(Cc3ccccc3)CC2)cc1
7. CN1CCN(C(=O)c2ccc(NC(=O)Nc3ccc(Nc4nc(Nc5ccc(C(N)=O)cc5)c5cnn(C)c5n4)cc3)cc2)CC1
8. Cn1ncc2c(Oc3ccc(C(N)=O)cc3)nc(-c3ccccc3)nc21

Result ::
1. 637
2. 230
3. 0.7
4. 10800
5. 1330
6. 3430
7. 0.4
8. 1020

---

# Assayed target: mTOR (Homo sapiens, UniProt P42345)
# Test description: mTOR enzyme assay (DELFIA, His6-S6K phosphorylation)
# Assay type: biochemical
# Parameters: FLAG
# Measurement parameters: 100 μM ATP, 1.25 μM His6-S6K
Endpoint label: pIC50
Answers are plain numbers, as −log10 of the molar value.

Below: 2 compounds and their reported pIC50.
[[record]]
compound = "CN(C)C1CCN(C(=O)c2ccc(NC(=O)Nc3ccc(Nc4nc(Nc5ccc(C(N)=O)cc5)c5cnn(C)c5n4)cc3)cc2)C1 (stereo not shown)"
reported_result = 8.30

[[record]]
compound = "CNC(=O)Nc1cccc(-c2nc(Nc3ccc(C(N)=O)cc3)c3cnn(C)c3n2)c1"
reported_result = 6.11


Pending compound:
Query :: Provide value of pIC50 for this record tested with mTOR (Homo sapiens, UniProt P42345): Cn1ncc2c(Nc3ccc(C(N)=O)cc3)nc(Nc3ccc(NC(=O)Nc4ccc(C(=O)N5CCOCC5)cc4)cc3)nc21
Result :: 8.15

---

Kindly supply the reported IC50 values for the records listed here.
# Assayed target: PI3K-α (Homo sapiens)
# Sequence (P42336 whole entry, species assumed): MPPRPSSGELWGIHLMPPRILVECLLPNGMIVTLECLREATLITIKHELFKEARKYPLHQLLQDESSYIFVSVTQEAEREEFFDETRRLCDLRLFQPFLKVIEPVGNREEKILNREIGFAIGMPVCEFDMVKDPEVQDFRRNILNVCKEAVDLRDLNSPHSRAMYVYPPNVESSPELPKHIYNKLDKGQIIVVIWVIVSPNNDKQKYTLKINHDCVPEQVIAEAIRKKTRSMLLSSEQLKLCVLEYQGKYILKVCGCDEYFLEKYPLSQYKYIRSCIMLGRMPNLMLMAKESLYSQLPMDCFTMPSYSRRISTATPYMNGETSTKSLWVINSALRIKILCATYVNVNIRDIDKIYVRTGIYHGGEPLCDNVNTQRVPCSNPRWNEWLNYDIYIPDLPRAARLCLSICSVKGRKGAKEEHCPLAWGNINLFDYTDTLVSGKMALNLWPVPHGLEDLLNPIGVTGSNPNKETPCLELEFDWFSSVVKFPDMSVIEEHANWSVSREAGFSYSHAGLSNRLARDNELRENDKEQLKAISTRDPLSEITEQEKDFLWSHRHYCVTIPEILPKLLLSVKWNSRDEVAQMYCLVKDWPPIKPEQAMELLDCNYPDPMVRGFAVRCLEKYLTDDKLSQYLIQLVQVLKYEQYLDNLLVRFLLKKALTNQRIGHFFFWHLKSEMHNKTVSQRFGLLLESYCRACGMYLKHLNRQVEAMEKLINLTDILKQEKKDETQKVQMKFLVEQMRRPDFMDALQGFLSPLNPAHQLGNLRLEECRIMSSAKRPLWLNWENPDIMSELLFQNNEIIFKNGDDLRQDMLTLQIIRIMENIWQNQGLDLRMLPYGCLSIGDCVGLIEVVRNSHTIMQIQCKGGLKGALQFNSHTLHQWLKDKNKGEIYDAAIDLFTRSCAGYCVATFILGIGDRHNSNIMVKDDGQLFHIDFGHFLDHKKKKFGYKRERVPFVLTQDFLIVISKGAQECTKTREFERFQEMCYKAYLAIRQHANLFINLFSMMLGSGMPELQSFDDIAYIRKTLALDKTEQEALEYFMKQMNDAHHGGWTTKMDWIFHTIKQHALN
# Sequence (P27986 whole entry partner, species assumed): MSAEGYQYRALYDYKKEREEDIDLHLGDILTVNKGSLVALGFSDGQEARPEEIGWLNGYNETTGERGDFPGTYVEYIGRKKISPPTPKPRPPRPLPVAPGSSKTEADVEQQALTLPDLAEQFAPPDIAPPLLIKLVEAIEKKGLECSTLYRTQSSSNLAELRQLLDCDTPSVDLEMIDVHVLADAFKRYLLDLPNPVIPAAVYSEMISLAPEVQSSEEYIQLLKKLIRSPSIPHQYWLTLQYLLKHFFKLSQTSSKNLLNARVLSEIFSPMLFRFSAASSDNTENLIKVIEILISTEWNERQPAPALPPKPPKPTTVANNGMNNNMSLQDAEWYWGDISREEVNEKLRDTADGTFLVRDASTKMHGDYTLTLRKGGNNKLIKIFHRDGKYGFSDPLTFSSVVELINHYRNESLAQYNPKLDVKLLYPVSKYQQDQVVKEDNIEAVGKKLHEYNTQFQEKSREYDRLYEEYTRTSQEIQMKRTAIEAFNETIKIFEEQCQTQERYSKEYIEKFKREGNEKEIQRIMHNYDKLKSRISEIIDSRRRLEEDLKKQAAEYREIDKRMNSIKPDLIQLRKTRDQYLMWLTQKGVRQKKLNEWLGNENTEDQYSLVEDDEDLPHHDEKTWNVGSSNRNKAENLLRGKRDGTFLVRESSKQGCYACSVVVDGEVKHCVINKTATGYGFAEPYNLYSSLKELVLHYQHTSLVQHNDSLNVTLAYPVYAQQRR
Answers are plain numbers, in µM.

Provide reported IC50 for each item, in the same order as listed.
1. COc1ccc(Oc2nc(-c3ccccc3)nc3c2cnn3C)cc1OC [Example 73]
2. COc1cccc(-c2nc(Oc3ccc4[nH]ccc4c3)c3cnn(C)c3n2)c1 [Example 38]
3. CC(C)NC(=O)Nc1ccc(Nc2nc(Nc3ccc(C(N)=O)cc3)c3cnn(C)c3n2)cc1 [Example 89]
4. CC(=O)Nc1ccc(Oc2nc(-c3ccc(N(C)C)cc3)nc3c2cnn3C)cc1 [Example 51]
5. COc1ccc(-c2nc(Oc3ccc4[nH]ccc4c3)c3cnn(C)c3n2)cc1OC [Example 39]
6. CN(C)C(=O)c1ccc(Nc2nc(Nc3ccc(NC(=O)Nc4cccnc4)cc3)nc3c2cnn3C)cc1 [Example 93]

Result ::
1: 1.76; 2: 0.298; 3: 0.123; 4: 4.96; 5: 0.16; 6: 0.0021

Provide reported IC50 for each item, in the same order as listed.
1. Cn1ncc2c(Oc3ccc4[nH]ccc4c3)nc(-c3cccnc3)nc21 [Example 41]
2. CN(c1ccc(C(N)=O)cc1)c1nc(-c2ccccc2)nc2c1cnn2C [Example 34]
3. CC(=O)Nc1ccc(Oc2nc(-c3cccc(O)c3)nc3c2cnn3C)cc1 [Example 50]
4. Cc1noc(C)c1-c1nc(Nc2ccc(C(N)=O)cc2)c2cnn(C)c2n1 [Example 63]

Result ::
[0.215, 6.7, 0.113, 0.075]

Provide reported IC50 for each item, in the same order as listed.
1. Cn1ncc2c(Nc3ccc(C(N)=O)cc3)nc(-c3ccccc3)nc21 [Example 11]
2. Cn1ncc2c(Oc3ccc4[nH]ccc4c3)nc(-c3cccc(Cl)c3)nc21 [Example 66]
3. Cn1ncc2c(Oc3ccc4[nH]ccc4c3)nc(-c3cccc([N+](=O)[O-])c3)nc21 [Example 67]

Result ::
1. 0.167
2. 0.762
3. 0.66

Query :: // returns reported IC50 for input NC(=O)c1ccc(Nc2nc(-c3ccccc3)nc3c2cnn3C2CCN(Cc3ccccc3)CC2)cc1 [Example 1]
Result :: 6.11
